System: NOMO1
measurement.protocol: AUC of viability dose-response curve (% viability x log10 dose units); higher = less sensitive
condition.context: RPMI 5 mM glucose + 10% FBS; 48 h
quantity.measured: AUC of viability dose-response curve
Number only, please.

// worked examples, AUC of viability dose-response curve included
# compound, target.desc, experimental.result
data = [
    ("Cc1[nH]c2ccccc2c1CCNCc1ccc(/C=C/C(=O)NO)cc1", "NOMO1", 311),
    ("O=C(O[C@H]1C[C@H]2CC[C@@H](C1)[N+]21CCCC1)C(O)(c1ccccc1)c1ccccc1.[Cl-]", "NOMO1", 462),
    ("C[C@]12CCC(=O)C=C1CC[C@@H]1[C@@H]2CC[C@@]2(C)[C@H]1CC[C@]2(C)O", "NOMO1", 430),
    ("CCOC(=O)\\C1=C(/C)N\\C2=C(C1C3=CC=C(C=C3)C4=CC=CC=C4)\\C(=O)CC(C)(C)C2 (stereo unspecified)", "NOMO1", 465),
    ("CN(C)CCc1ccc(O)cc1", "NOMO1", 460),
    ("COc1cc2ncnc(Nc3ccc(F)c(Cl)c3)c2cc1NC(=O)/C=C/CN1CCCCC1", "NOMO1", 426),
    ("O=C(NC[C@H](O)CO)c1ccncc1Nc1ccc(I)cc1F", "NOMO1", 290),
    ("CC[C@H](C)[N]1C=C(C)C2=C1C=C(C=C2C(=O)NC\\C3=C(C)\\C=C(\\C)NC3=O)C4=CC=C(N=C4)N5CCNCC5", "NOMO1", 475),
    ("OC(CN1CCC(Cc2ccc(F)cc2)CC1)c1ccc(Cl)cc1 (stereo unspecified)", "NOMO1", 455),
    ("C/C=C1\\C2C=C(C)CC1(N)c1ccc(=O)[nH]c1C2 (stereo unspecified)", "NOMO1", 467),
]

Fill in AUC of viability dose-response curve for record "CCCCCC[C@H]1C(=O)O[C@H](C)[C@H](NC(=O)c2cccc(NC=O)c2O)C(=O)O[C@@H](C)[C@@H]1OC(=O)CC(C)C"
438

Using known records, supply AUC of viability dose-response curve for "CC(C)=CC[C@@H](O)C/1=C/C(=O)C2=C(O)C=CC(=C2C1=O)O"
354

Identify measured AUC of viability dose-response curve associated with "Cn1cnc2c1c(=O)[nH]c(=O)n2C"
443

Provide one value: measured AUC of viability dose-response curve of "COc1ccc(-c2ccc3c(N4CCOC[C@@H]4C)nc(N4CCOC[C@@H]4C)nc3n2)cc1CO"
359

Supply reported AUC of viability dose-response curve belonging to this compound: "COc1ccc(C(C)=O)c(O)c1"
366

Specify AUC of viability dose-response curve for "O=C(c1ccc(Nc2nccc(-c3cc4ccccc4s3)n2)cc1)N1CCC(N2CCCC2)CC1" and stop.
446

Source of measurements: the supplement of paper PMC11451515
